For each of the sequences below, state its self-splicing fitness (ln).
# protocolText: self-splicing fitness, log relative to wild type (ln ratio); higher = more splicing; Tetrahymena group I intron in knt gene, E. coli kanamycin selection, DiMSum; sequences stand for … in CUCUCU…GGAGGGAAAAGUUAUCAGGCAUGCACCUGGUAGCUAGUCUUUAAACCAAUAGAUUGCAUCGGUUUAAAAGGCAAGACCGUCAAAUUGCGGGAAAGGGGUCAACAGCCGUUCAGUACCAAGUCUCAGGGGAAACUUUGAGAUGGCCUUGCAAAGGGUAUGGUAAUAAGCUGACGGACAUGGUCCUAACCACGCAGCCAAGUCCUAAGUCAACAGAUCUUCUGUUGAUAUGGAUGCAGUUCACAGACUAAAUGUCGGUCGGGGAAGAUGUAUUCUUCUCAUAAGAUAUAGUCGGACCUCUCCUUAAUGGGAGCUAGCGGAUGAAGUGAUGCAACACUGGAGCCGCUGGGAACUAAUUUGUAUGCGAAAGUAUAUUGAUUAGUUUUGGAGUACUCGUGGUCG;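 note: selection with 25 µg/mL kanamycin versus none on LB agar overnight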
# conditionSummary: 30 °C
Give bare numbers.

Examples with their reported self-splicing fitness (ln) follow.
| residueSequence | experimentalValue |
| --- | --- |
| GUCUAGCAAUAUUACGCUGU | -0.966 |
| AUCGAGCAAUAUUACGCCGU | -2.52 |
| CUGGAGCAAUAUUACGCGAC | -0.944 |
| GAUAAGCAAUAUUACGCAAG | -2.51 |

Could you report self-splicing fitness (ln) for every entry in the following list?
1. AUUGAGCAAUAUUACGGCUA
2. UAAGAGCAAUAUUACGACGG
3. GAUAAGCAAUAUUACGGGCG

Reply:
-1.73
-3.85
-1.41

Please give self-splicing fitness (ln) for each item listed below.
1. CCGGAGCAAUAUUACGGCAG
2. UGGGAGCAAUAUUACGUGUU
3. UUCGAGCAAUAUUACGAUCC
4. GUGGAGCAAUAUUACGUGGU
5. CAUAAGCAAUAUUACGUGAG
6. GACCAGCAAUAUUACGGCCC
7. GUUUAGCAAUAUUACGACGG
8. GUGUAGCAAUAUUACGGGUG

Reply:
-3.21
-3.63
-2.6
-2.9
-3.12
-2.54
-2.88
-2.72

Task item: Answer with the recorded self-splicing fitness (ln) of CGCAAGCAAUAUUACGCAAU only.
Reply: -2.94

----------
# protocolText: self-splicing fitness, log relative to wild type (ln ratio); higher = more splicing; Tetrahymena group I intron in knt gene, E. coli kanamycin selection, DiMSum; sequences stand for … in CUCUCU…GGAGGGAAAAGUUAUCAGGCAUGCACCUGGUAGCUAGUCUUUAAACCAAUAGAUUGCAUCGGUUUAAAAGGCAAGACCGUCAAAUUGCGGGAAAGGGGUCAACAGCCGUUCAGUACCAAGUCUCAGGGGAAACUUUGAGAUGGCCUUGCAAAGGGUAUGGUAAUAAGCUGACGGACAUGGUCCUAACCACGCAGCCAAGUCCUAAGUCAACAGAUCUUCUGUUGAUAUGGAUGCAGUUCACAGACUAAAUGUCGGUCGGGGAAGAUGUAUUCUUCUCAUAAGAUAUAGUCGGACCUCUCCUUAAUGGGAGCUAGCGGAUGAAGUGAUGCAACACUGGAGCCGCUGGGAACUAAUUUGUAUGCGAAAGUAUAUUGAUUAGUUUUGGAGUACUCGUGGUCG
# conditionSummary: 37 °C
Lab note: class by self-splicing fitness (ln), see LOW = under -2, MID = from -2 up to -1, HIGH = -1 and over

| residueSequence | discreteLabel |
| --- | --- |
| AACUAGCAAUAUUACGCGGG | LOW |
| UGGAAGCAAUAUUACGGAAG | MID |

Task item: State the band of ACGUAGCAAUAUUACGGCUU
Reply: HIGH

Task item: // return the class label for CGAAAGCAAUAUUACGGCGU
Reply: HIGH

Task item: // return the class label for AGAAAGCAAUAUUACGCUUG
Reply: MID

Task item: Into which category would you place AACGAGCAAUAUUACGUACU ?
Reply: MID
